- Tested on: HS 578T breast
- method: NCI tumour cell line growth inhibition, 48 h
Classify by measured TGI: satisfied if it is equal to or exceeds 50 µM, not satisfied if it is smaller.

(Q) # check: TGI of `Cc1cccc(/C=N/NC(=S)NCc2ccccn2)n1` is greater than or equal to 50 µM
(A) satisfied

(Q) # check: TGI of `COc1cc[nH]c1/C=C1\C(=O)Nc2ccc(F)c(C#C[C@@H](O)[C@@H](N)[C@@H](C)O)c21` is greater than or equal to 50 µM
(A) not satisfied

(Q) # check: TGI of COc1cc2c(cc1OC)C(=O)C(Br)CC2 (centres undefined) is greater than or equal to 50 µM
(A) not satisfied

(Q) # check: TGI of `Cc1cc2c(C)c3cc(C)c(N)cc3nc2cc1N` is greater than or equal to 50 µM
(A) not satisfied

(Q) # check: TGI of `O=S(=O)(c1ccc(NC(=S)N/N=C/c2ccccc2O)cc1)N1CCCCC1` is greater than or equal to 50 µM
(A) not satisfied

(Q) # check: TGI of `O=[N+]([O-])c1ccc(Sc2ncccn2)c([N+](=O)[O-])c1` is greater than or equal to 50 µM
(A) not satisfied

(Q) # check: TGI of `Cc1cc(C)c(S(=O)(=O)N[C@@H](/C=C(\Br)CO)C(C)C)c(C)c1` is greater than or equal to 50 µM
(A) satisfied

(Q) # check: TGI of `O=c1c(Cl)nnc2sc3ccccc3n12` is greater than or equal to 50 µM
(A) satisfied

(Q) # check: TGI of `COc1ccc(/C(=C/c2cc(OC)c(OC)c(OC)c2)[N+](=O)[O-])cc1` is greater than or equal to 50 µM
(A) not satisfied

(Q) # check: TGI of Oc1c(C2=NNC(c3cccs3)C2)ccc2ccccc12 (centres undefined) is greater than or equal to 50 µM
(A) satisfied

(Q) # check: TGI of CC(C)C1CC=NN1C(=O)OC(C)(C)C (centres undefined) is greater than or equal to 50 µM
(A) satisfied

(Q) # check: TGI of `C1=CN2C[n+]3cccc(OCc4ccccc4)c3N=C2C(OCc2ccccc2)=C1` is greater than or equal to 50 µM
(A) not satisfied

(Q) # check: TGI of `Cn1c(=O)n2n(c1=O)Cc1cccc3cccc(c13)C2` is greater than or equal to 50 µM
(A) satisfied

(Q) # check: TGI of NCC(O)CNCC/C=C\C/C=C\C/C=C\C/C=C\C/C=C\C/C=C\CCCCC/C=C\CCNCC(O)CN (centres undefined) is greater than or equal to 50 µM
(A) not satisfied

(Q) # check: TGI of O=C(O)CCC(NC(=O)c1ccc(Nc2nc3ccccc3nc2C(=O)O)cc1)C(=O)O (centres undefined) is greater than or equal to 50 µM
(A) satisfied

(Q) # check: TGI of `CCOC(=O)c1cnc(SCc2ccc(Cl)c(Cl)c2)nc1N1CC1` is greater than or equal to 50 µM
(A) not satisfied

(Q) # check: TGI of O=C(O)c1cccc(S(=O)(=O)NN2C(=O)CSC2c2ccccc2)c1 (centres undefined) is greater than or equal to 50 µM
(A) satisfied

(Q) # check: TGI of CC(=O)OCCC1c2ccccc2-n2nc(-c3ccccc3)c(O)c21 (centres undefined) is greater than or equal to 50 µM
(A) satisfied

(Q) # check: TGI of CC(O)c1c2c(cc3c1CC1(C3)Cc3cc4c(c(C(C)O)c3C1)CCC4)CCC2 (centres undefined) is greater than or equal to 50 µM
(A) satisfied

(Q) # check: TGI of Cc1ccc(S(=O)(=O)NC(=O)NC(CO)C(=O)O)cc1 (centres undefined) is greater than or equal to 50 µM
(A) satisfied

(Q) # check: TGI of CCC1(OC(=O)CN2CCN(CCO)CC2)C(=O)OCc2c1cc1n(c2=O)Cc2cc3ccccc3nc2-1 (centres undefined) is greater than or equal to 50 µM
(A) satisfied

(Q) # check: TGI of `CCOC(=O)c1c(O)[nH]c(=O)c(CC)c1C` is greater than or equal to 50 µM
(A) satisfied

(Q) # check: TGI of `Cc1c2c(c(C)n1-c1ccccc1)C(=O)N(CCSC(=N)N)C2=O` is greater than or equal to 50 µM
(A) satisfied

(Q) # check: TGI of `Cc1ccc(-c2sc(-c3ccc(C)cc3)c3c2C2CCC3C2)cc1` is greater than or equal to 50 µM
(A) satisfied

(Q) # check: TGI of CCCCOC(=O)C(=O)C(CC(C(=O)Cc1ccccc1)c1ccccc1)C(=O)C=C(C)C (centres undefined) is greater than or equal to 50 µM
(A) satisfied

(Q) # check: TGI of `COc1ccc(NC(=O)CC(=O)n2nc(C)c(N=Nc3ccc(C)c(C)c3)c2C)cc1` is greater than or equal to 50 µM
(A) satisfied

(Q) # check: TGI of `CN(C)CCN1C(=O)CC[C@@]2(C)C1=CC[C@@H]1[C@@H]2CC[C@@]2(C)[C@H]1CC[C@]2(C)O` is greater than or equal to 50 µM
(A) satisfied

(Q) # check: TGI of `C[C@H]1[C@H](OC(=O)CCC(=O)O)O[C@@H]2O[C@]3(C)CC[C@H]4[C@H](C)CC[C@@H]1[C@@]24OO3` is greater than or equal to 50 µM
(A) not satisfied

(Q) # check: TGI of COc1cc([C@@H]2c3cc4c(cc3[C@H](OC3OC5COC(C(C)C)OC5C(O)C3O)C3COC(=O)[C@@H]32)OCO4)cc(OC)c1O (some centres undefined) is greater than or equal to 50 µM
(A) not satisfied

(Q) # check: TGI of CC12OC(C(=O)C13CC3)C1C(=O)c3ccccc3C(=O)C12 (centres undefined) is greater than or equal to 50 µM
(A) satisfied

(Q) # check: TGI of CC(=O)OCC1OC(Nc2ccc3nc(C)n(-c4cccc(C)c4)c(=O)c3c2)C(OC(C)=O)C(OC(C)=O)C1OC(C)=O (centres undefined) is greater than or equal to 50 µM
(A) satisfied

(Q) # check: TGI of `COc1ccc(/C=C2\CN(C(=O)CCN3CCC(=NO)CC3)C/C(=C\c3ccc(OC)cc3)C2=O)cc1` is greater than or equal to 50 µM
(A) not satisfied

(Q) # check: TGI of ClC(Cl)(Cl)C1CCOC1n1nc2ccccc2n1 (centres undefined) is greater than or equal to 50 µM
(A) satisfied

(Q) # check: TGI of `O=C1c2ccccc2-c2c1c1ccccc1c(=O)n2CCO` is greater than or equal to 50 µM
(A) satisfied

(Q) # check: TGI of `CCOC(=O)N1CCN(Cc2cc(=O)n3cc(C)ccc3n2)CC1` is greater than or equal to 50 µM
(A) satisfied

(Q) # check: TGI of `CC[C@@H](CCCC[C@@H]1CC[C@H]2CC(=O)C[C@@H]12)OC` is greater than or equal to 50 µM
(A) satisfied

(Q) # check: TGI of `Clc1ccccc1/C=C/c1nsc(/C=C/c2ccccc2Cl)n1` is greater than or equal to 50 µM
(A) satisfied
